Data origin: patent US20240116985A1

# system: T1, B-cat-Halo (beta-catenin HaloTag fusion expressed in HEK293 cells) (UniProt P35222 1-781, HaloTag NanoBRET 618 Ligand bound to the HaloTag)
# T1 sequence (looked up): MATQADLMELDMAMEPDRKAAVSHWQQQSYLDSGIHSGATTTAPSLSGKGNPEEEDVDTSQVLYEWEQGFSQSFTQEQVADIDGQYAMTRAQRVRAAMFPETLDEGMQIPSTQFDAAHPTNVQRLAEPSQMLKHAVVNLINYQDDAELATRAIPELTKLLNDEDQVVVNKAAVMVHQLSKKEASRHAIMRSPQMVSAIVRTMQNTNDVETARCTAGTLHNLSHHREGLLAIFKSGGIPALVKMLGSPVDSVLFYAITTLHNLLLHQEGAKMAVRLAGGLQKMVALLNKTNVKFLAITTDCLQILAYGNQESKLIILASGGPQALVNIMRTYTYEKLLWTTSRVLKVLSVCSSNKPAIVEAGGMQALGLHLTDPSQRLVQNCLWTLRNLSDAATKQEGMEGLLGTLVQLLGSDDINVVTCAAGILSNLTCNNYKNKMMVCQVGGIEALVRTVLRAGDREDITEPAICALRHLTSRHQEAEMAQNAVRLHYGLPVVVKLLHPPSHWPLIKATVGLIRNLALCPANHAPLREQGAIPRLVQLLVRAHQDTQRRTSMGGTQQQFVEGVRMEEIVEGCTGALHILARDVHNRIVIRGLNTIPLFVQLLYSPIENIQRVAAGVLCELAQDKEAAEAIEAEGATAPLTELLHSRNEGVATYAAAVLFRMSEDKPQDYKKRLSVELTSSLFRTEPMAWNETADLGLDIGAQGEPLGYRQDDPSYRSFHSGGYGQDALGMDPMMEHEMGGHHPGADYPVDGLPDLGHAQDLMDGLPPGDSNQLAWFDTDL
# protocol_description: cell-based or functional assay
Starred links: 1 amine or outer side, 2 acyl side, 3 side chain; linkers in the order of their positions; H or OH if unused. Positions of bridges follow the written chain, without caps; N, C: chain ends. Non-standard residues stand in square brackets, D forms with d. Primed or numbered codes have the meaning given here. PyrS2″ = (S)-3-amino-1-((pent-4-en-1-yloxy)carbonyl)pyrrolidine-3-carboxylic acid (stapling residue), C=CCCCOC(=O)N1CC[C@@](N[*:1])(C(=O)[*:2])C1; B5(3) = 2,2-bis(4-pentenyl)glycine (stitching residue), C=CCCCC(CCCC=C)(N[*:1])C(=O)[*:2]; Asp(OEt)″ = aspartic acid side-chain ethyl ester, CCOC(=O)C[C@H](N[*:1])C(=O)[*:2]; Phe(3-COOH) = N[C@@H](Cc1cccc(C(=O)O)c1)C(=O)O; Bta = N[C@@H](Cc1csc2ccccc12)C(=O)O; Lys(iPr) = CC(C)NCCCC[C@H](N)C(=O)O; αAllylPro = C=CC[C@@]1(C(=O)O)CCCN1; tBuAla = CC(C)(C)C[C@H](N)C(=O)O; 3Thi = N[C@@H](Cc1ccsc1)C(=O)O; Cha = N[C@@H](CC1CCCCC1)C(=O)O; hSer = N[C@@H](CCO)C(=O)O; Aib = CC(C)(N)C(=O)O
readout: NanoBRET Abs IC50

binder	observed_result
Ac-[αAllylPro]D[tBuAla][B5(3)][Asp(OEt)″]DAAFL[PyrS2″][3Thi][Bta]Q-NH2 (staple 1-4, 4-11) [I-2357]	> 20 µM

Q) Look up NanoBRET Abs IC50 of Ac-[αAllylPro]N[Cha][B5(3)]DQ[Lys(iPr)]AFL[PyrS2″]F[Bta]K-NH2 (staple 1-4, 4-11) [I-2350] and report it.
A) > 20 µM

Q) Look up NanoBRET Abs IC50 of Ac-[αAllylPro]D[tBuAla][B5(3)]D[Asp(OEt)″]AAFL[PyrS2″][3Thi][Bta]Q-NH2 (staple 1-4, 4-11) [I-2358] and report it.
A) 52.2 µM

Q) Look up NanoBRET Abs IC50 of Ac-[αAllylPro]N[Cha][B5(3)]DQ[hSer]AFL[PyrS2″]F[Bta]Q-NH2 (staple 1-4, 4-11; also: earlier eluting isomer, configuration not given here) [I-2354] and report it.
A) > 20 µM

Q) Look up NanoBRET Abs IC50 of Ac-[αAllylPro]D[tBuAla][B5(3)]N[Phe(3-COOH)]AAFT[PyrS2″][3Thi][Bta]Q-NH2 (staple 1-4, 4-11) [I-2336] and report it.
A) 14.4 µM

Q) Look up NanoBRET Abs IC50 of Ac-[αAllylPro]D[tBuAla][B5(3)]NT[Aib]AFN[PyrS2″][3Thi][Bta]Q-NH2 (staple 1-4, 4-11) [I-2338] and report it.
A) > 20 µM
